Source listed as PubChem BioAssay AID602330.

Molecular target: 72 kDa type IV collagenase (Homo sapiens)
Assay: inhibitors of human MMP-2 protease – biochemical, fluorescence, single concentration, counter-screen for RPN11 inhibitor project, confirmation (AID 602330);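 also: human MMP-2 activated beforehand with APMA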
Details: recombinant MMP-2, FRET peptide cleavage fluorescence; at 20 µM; stronger effect = higher value
About 85 (4%) of roughly 1,900 compounds were called active. A selection follows.
READOUT: inhibition (%)
// units = %; emit number, no label

# count of solved cases: 2
{"columns": ["MOLECULE", "inhibition (%)"],
 "data": [
  ["COC(=O)c1ccc(OCC(=O)NC(C)(C)C)cc1", 6.02],
  ["CCN(CC)C(=O)CSc1nc2ccccc2n1CC(=O)N1CCN(c2ccccc2OC)CC1", 8.93]
]}

Let's switch to this molecule now.
Entry under review: Cc1ccc(NC(=O)CN2CCc3ccccc3C2)cc1 . Reported inhibition?
-29.5

###

Target: 72 kDa type IV collagenase (Homo sapiens)
Assay: inhibitors of human MMP-2 protease – biochemical, fluorescence, single concentration, counter-screen for RPN11 inhibitor project, confirmation (AID 602330);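 also: human MMP-2 activated beforehand with APMA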
Settings: recombinant MMP-2, FRET peptide cleavage fluorescence; at 20 µM; stronger effect = higher value
About 85 (4%) of roughly 1,900 compounds were called active. Not all results are given here.
Entry flag: condition met if inhibition reaches -10%; condition not met if it does not.

Threshold query (inhibition >= -10%) on Cc1ccc(Nc2nc(Cl)c(C=O)s2)cc1
condition not met

Please give the result for Cc1ccc(NC(=O)c2c(NC(=O)CCC(=O)O)sc3c2CCCCC3)cc1 too.
condition met

Please give the result for NC(N)=N/N=C/c1ccc(OCc2ccc(Cl)cc2Cl)cc1 too.
condition met

Please give the result for O=C(CCS(=O)(=O)c1cccc2nonc12)NCCc1ccccc1Cl too.
condition not met

Please give the result for CCCOc1ccc(Cn2c(O)cc(=O)[nH]c2=O)cc1 too.
condition not met

Please give the result for CSC1=N/C(=C\C=C\c2cccs2)C(=O)S1 too.
condition met

Please give the result for CCN1CCCC1CNC(=O)c1cc2c(=O)n(C)c3ccccc3c2n1C (stereo not given) too.
condition met

Please give the result for Cc1ccc(N=Cc2c(O)cc(C)oc2=O)c(C)c1 too.
condition not met

Please give the result for CN(C)c1ccc(-n2cccc2/C=C2/SC(=Nc3ccc(F)cc3)NC2=O)cc1 too.
condition met

Please give the result for CCCCCCSc1ccc([C@@H]2[C@H]3C(=O)N(CC)C(=O)[C@H]3[C@]3(C(=O)OC)CCCCN23)cc1 too.
condition not met

Please give the result for COc1cccc(/C=C(/CC(=O)Nc2ccc(N3CCOCC3)cc2)c2nc3ccccc3s2)c1 too.
condition met

Please give the result for CCc1ccc(-c2cc(C(=O)NCc3ccco3)c3ccccc3n2)s1 too.
condition not met

Please give the result for O=C(OCc1cc2ccccc2[nH]c1=O)c1cccnc1 too.
condition not met

Please give the result for CCC(C)Cn1c(O)cc2nn(-c3nc4ccccc4s3)c(=O)c-2c1C (stereo not given) too.
condition met

Please give the result for COc1cc(/C=C2/SC(=S)N(Cc3ccccc3)C2=O)cc(OC)c1O too.
condition met

###

Target: 72 kDa type IV collagenase (Homo sapiens) (UniProt P08253)
Sequence (P08253 whole entry, looked up): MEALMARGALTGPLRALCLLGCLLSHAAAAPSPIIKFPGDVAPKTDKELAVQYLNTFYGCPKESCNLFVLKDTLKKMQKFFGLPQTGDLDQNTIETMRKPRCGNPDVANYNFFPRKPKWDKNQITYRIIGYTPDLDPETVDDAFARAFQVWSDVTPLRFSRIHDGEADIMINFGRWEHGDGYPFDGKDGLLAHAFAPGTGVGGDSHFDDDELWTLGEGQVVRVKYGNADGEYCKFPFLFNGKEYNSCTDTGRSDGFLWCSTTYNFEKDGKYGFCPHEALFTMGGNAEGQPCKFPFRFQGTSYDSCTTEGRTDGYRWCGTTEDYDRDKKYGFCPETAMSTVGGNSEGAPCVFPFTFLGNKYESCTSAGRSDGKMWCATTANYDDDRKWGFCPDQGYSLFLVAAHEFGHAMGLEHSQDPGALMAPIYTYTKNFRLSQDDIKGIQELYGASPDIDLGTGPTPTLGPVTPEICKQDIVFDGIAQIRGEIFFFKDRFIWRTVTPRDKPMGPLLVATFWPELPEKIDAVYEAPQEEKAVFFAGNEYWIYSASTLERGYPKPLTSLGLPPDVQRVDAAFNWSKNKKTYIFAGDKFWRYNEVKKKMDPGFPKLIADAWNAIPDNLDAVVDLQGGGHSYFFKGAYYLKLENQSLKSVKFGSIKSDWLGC
Test: inhibitors of human MMP-2 protease – biochemical, fluorescence, single concentration, counter-screen for RPN11 inhibitor project, confirmation (AID 602330);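 also: human MMP-2 activated beforehand with APMA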
Settings: recombinant MMP-2, FRET peptide cleavage fluorescence; at 20 µM; stronger effect = higher value
Hit rate of the full screen: of about 1,900 compounds, about 85 (4%) were called active. These entries were drawn from the full list.
READOUT: inhibition

{"columns": ["COMPOUND", "TARGET DESC", "RESULT"],
 "data": [
  ["N#Cc1ccc(C(=O)Nc2cccc3cccnc23)c(F)c1", "72 kDa type IV collagenase (Homo sapiens) (UniProt P08253)", "-11% (inactive)"],
  ["CCOc1ccc(-n2c(O)c(/C=N/c3ccnn3Cc3ccncc3)c3ccccc3c2=O)cc1", "72 kDa type IV collagenase (Homo sapiens) (UniProt P08253)", "1.46% (inactive)"],
  ["O=C1NC(=O)C2C1C(c1ccc([N+](=O)[O-])cc1)=NN2Cc1ccccc1 (stereo not given)", "72 kDa type IV collagenase (Homo sapiens) (UniProt P08253)", "-11.1% (inactive)"],
  ["C=CCn1c(SCC(=O)NCc2ccccc2)nnc1-c1cc(Br)ccc1O", "72 kDa type IV collagenase (Homo sapiens) (UniProt P08253)", "-13% (inactive)"]
]}

Let's switch to this compound now.
Entry under review: O=C(CSc1nc2ccccc2c(=O)[nH]1)Nc1nc(-c2ccc(Br)cc2)cs1 . Reported inhibition?
51.9% (active)
